Overview of reported EC50 across a group of compounds:
- Study system: glucokinase (GK), residues 12-465 of the human enzyme (Homo sapiens, UniProt P35557)
- Construct: I.D. No. 1 corresponds to residues 12-465 of glucokinase
- Sequence (P35557 with tags, fused parts or gaps isoform P35557-2): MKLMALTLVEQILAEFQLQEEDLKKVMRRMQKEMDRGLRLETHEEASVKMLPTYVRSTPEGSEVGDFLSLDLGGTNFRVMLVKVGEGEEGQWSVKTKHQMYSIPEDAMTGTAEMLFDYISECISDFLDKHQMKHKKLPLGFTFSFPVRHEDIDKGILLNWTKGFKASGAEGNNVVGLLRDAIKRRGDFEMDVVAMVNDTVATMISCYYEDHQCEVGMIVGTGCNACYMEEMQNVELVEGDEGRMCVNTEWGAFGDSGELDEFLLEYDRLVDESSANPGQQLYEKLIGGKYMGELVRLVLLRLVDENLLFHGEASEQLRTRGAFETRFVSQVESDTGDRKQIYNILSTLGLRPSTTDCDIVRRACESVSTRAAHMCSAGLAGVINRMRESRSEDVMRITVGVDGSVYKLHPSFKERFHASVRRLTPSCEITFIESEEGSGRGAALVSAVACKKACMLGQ
- Assay protocol: Enzymatic glucokinase activity assay (KinaseGlo luminescence, ATP consumption)
- Condition set: GK activation; 5 μM ATP, 5 mM Glucose; Kact = concentration giving 50% of the maximal increase in GK activity; read-out: pKact

Consider the reported EC50 for these compounds:
Compound	Measurement kind	Result
O=C(Nc1nccs1)[C@H](CC1CCCCC1)N1CCN(C(=S)Nc2ccc(Oc3ccccc3)cc2)CC1=O [Example 127]	EC50	1580 to 2510 nM
O=C(Nc1nccs1)[C@H](CC1CCCCC1)N1CCN(S(=O)(=O)c2ccccc2F)CC1=O [Example 205]	EC50	≤ 631 nM
O=C(Nc1nccs1)[C@H](CC1CCCCC1)N1CCN(S(=O)(=O)c2ccc(Oc3ccccc3)nc2)CC1=O [Example 209]	EC50	1580 to 2510 nM

Report value: EC50, system: glucokinase (GK), residues 12-465 of the human enzyme (Homo sapiens, UniProt P35557), compound: O=C(Nc1nccs1)[C@H](CC1CCCCC1)N1CCN(C(=S)Nc2ccc(C(F)(F)F)cc2)CC1=O [Example 85]
≥ 3160 nM

* * *

- Study system: glucokinase (GK), residues 12-465 of the human enzyme (Homo sapiens, UniProt P35557)
- Construct: I.D. No. 1 corresponds to residues 12-465 of glucokinase
- Assay protocol: Enzymatic glucokinase activity assay (KinaseGlo luminescence, ATP consumption)
- Condition set: GK activation; 5 μM ATP, 5 mM Glucose; Kact = concentration giving 50% of the maximal increase in GK activity; read-out: pKact
pEC50: −log10 of the molar value.
# pEC50 listing for each entry below

Illustrative cases are given below, each with its answer.
Compound	Study system	Result
CC(C)S(=O)(=O)N1CCN([C@@H](CC2CCCCC2)C(=O)Nc2nccs2)C(=O)C1 [Example 59]	glucokinase (GK), residues 12-465 of the human enzyme (Homo sapiens, UniProt P35557)	5.60 to 5.80
O=C(Nc1ncc(Cl)s1)C(CC1CCOCC1)N1CCN(S(=O)(=O)c2cccs2)CC1=O (stereo not drawn) [Example 36]	glucokinase (GK), residues 12-465 of the human enzyme (Homo sapiens, UniProt P35557)	≥ 6.20
O=C(Nc1nccs1)[C@H](CC1CCCCC1)N1CCN(S(=O)(=O)c2cccc(OC(F)F)c2)CC1=O [Example 106]	glucokinase (GK), residues 12-465 of the human enzyme (Homo sapiens, UniProt P35557)	5.90 to 6.10
CCN(CC)CCCNC(=S)N1CCN([C@@H](CC2CCCCC2)C(=O)Nc2nccs2)C(=O)C1 [Example 133]	glucokinase (GK), residues 12-465 of the human enzyme (Homo sapiens, UniProt P35557)	5.90 to 6.10
O=C(Nc1nccs1)[C@H](CC1CCCCC1)N1CCN(S(=O)(=O)Cc2cc(Cl)cc(Cl)c2)CC1=O [Example 212]	glucokinase (GK), residues 12-465 of the human enzyme (Homo sapiens, UniProt P35557)	5.60 to 5.80

Provide only the value of recorded pEC50 for O=C(Nc1nccs1)[C@H](CC1CCCCC1)N1CCN(S(=O)(=O)c2cc(F)ccc2F)CC1=O [Example 184]
≥ 6.20

Entry O=C(Nc1nccs1)[C@H](CC1CCCCC1)N1CCN(C(=S)NC2CCCC2)CC1=O [Example 128] needs its pEC50 filled in; supply it.
5.90 to 6.10

Query pEC50 for O=C(Nc1nccs1)[C@H](CC1CCCCC1)N1CCN(S(=O)(=O)c2ccc(-c3cnco3)s2)CC1=O [Example 161]
5.60 to 5.80

Return pEC50 for the following compound: N#Cc1cccc(NC(=S)N2CCN([C@@H](CC3CCCCC3)C(=O)Nc3nccs3)C(=O)C2)c1 [Example 116]
≤ 5.50

Return value of pEC50 for input O=C(Nc1nccs1)[C@H](CC1CCCCC1)N1CCN(S(=O)(=O)C2CCCC2)CC1=O [Example 113] , no commentary.
≥ 6.20

Annotate the compound O=C(Nc1ncc(Cl)s1)C(CC1CCOCC1)N1CCN(S(=O)(=O)c2cccc(F)c2)CC1=O (stereo not drawn) [Example 147] with its measured pEC50.
5.90 to 6.10

Give pEC50 for O=C(Nc1nccs1)[C@H](CC1CCCCC1)N1CCN(C(=O)Nc2ccc(OCc3ccccc3)cc2)CC1=O [Example 146]
≤ 5.50

Retrieve pEC50 measured for O=C(Nc1nccs1)[C@H](CC1CCCCC1)N1CCN(S(=O)(=O)c2ccc3ncsc3c2)CC1=O [Example 97] and print it.
5.90 to 6.10

Report pEC50 for O=C(Nc1nccs1)[C@H](CC1CCCCC1)N1CCN(S(=O)(=O)c2ccc(Cl)c(Cl)c2)CC1=O [Example 90]
5.90 to 6.10

Return the recorded pEC50 value; entry: O=C(Nc1nccs1)[C@H](CC1CCCCC1)N1CCN(S(=O)(=O)c2ccc(-c3nsc(Cl)n3)s2)CC1=O [Example 165]
5.90 to 6.10

Please supply the value of reported pEC50 for the item CN1CCOc2cc(S(=O)(=O)N3CCN([C@@H](CC4CCCCC4)C(=O)Nc4nccs4)C(=O)C3)ccc21 [Example 44]
≥ 6.20

Identify measured pEC50 corresponding to O=C(Nc1nccs1)[C@H](CC1CCCCC1)N1CCN(C(=S)Nc2cccc3ccccc23)CC1=O [Example 80]
5.60 to 5.80

Look up pEC50 of O=C(Nc1ncc(Cl)s1)[C@H](CC1CCOCC1)N1CCN(S(=O)(=O)c2cccc(F)c2)CC1=O [Example 150] and report it.
≥ 6.20

Give pEC50 for O=C(Nc1nccs1)[C@H](CC1CCCCC1)N1CCN(S(=O)(=O)c2ccc(F)c(F)c2F)CC1=O [Example 183]
5.90 to 6.10

Quick one: give measured pEC50 for O=C(Nc1nccs1)[C@H](CC1CCCCC1)N1CCN(S(=O)(=O)c2ccc(Oc3ccccn3)cc2)CC1=O [Example 207]
≥ 6.20

Report measured pEC50; entry is CC(=O)c1cccc(S(=O)(=O)N2CCN([C@@H](CC3CCCCC3)C(=O)Nc3nccs3)C(=O)C2)c1 [Example 196]
5.60 to 5.80

State, in one line, measured pEC50 of O=C(Nc1nccs1)[C@H](CC1CCCCC1)N1CCN(S(=O)(=O)c2ccc(Br)s2)CC1=O [Example 203]
≥ 6.20

Assign pEC50 to the following record: O=C(Nc1nccs1)[C@H](CC1CCCCC1)N1CCN(S(=O)(=O)c2csc3ccccc23)CC1=O [Example 50]
5.90 to 6.10
